Assay: The drug is tested on WLS-082 corresponding to human gut metagenome with ENA study accession number: PRJEB37062 and ENA sample accession number: ERS12561751 for biotransformation under anaerobic condition. The drug concentrations were measured over 9 timepoints collected between 0 and 24 hours of incubation by liquid-chromatography-coupled mass spectrometry (LC–MS); further: call rule not given here
Settings: 2 µM

# Compound, Bacterial Biotransformation
measured = [
    ("CC(C)N(CCC(C(N)=O)(c1ccccc1)c1ccccn1)C(C)C.O=P(O)(O)O (stereo not drawn) [DISOPYRAMIDE PHOSPHATE]", "Compound NOT metabolized"),
    ("COc1ccc2c3c1O[C@H]1C[C@@H](O)C=C[C@@]31CCN(C)C2", "Compound NOT metabolized"),
]

Source listed as ChEMBL document CHEMBL5724914.
